- systemTested: full-length human Hpk1 (Homo sapiens)
- Construct: A recombinant fusion protein consisting of full-length human Hpk1; GST (N)
- methodDescription: HPK1 kinase assay (ADP Glo Kinase Assay)
- Format: biochemical
- measurementConditions: full-length human GST-Hpk1, ADP Glo, 75 μM ATP; read-out: Hpk1 biochemical (pIC50) (converted)
Measured IC50 accompanies every entry in the list below.
Please give a number only; it is taken to be in µM.

These solved cases illustrate the format of a correct answer.
• CN(C)Cc1cc(-c2cnc(N)c(-c3ccncn3)c2)ccc1C1CCOCC1 [Co. 77] = 0.0141
• Nc1ncc(-c2ccc(C3CCOCC3)c([C@@H]3CCCN3)c2)cc1-c1ccnc(F)c1F [Co. 27] = 0.00575

Turning now to a further compound:
So, Nc1ncc(-c2ccc(C3CCOCC3)c([C@H]3C[S@@+]([O-])CCN3)c2)cc1-c1ccnc(F)c1 (single isomer, unassigned) [Compound 15a] ? Its IC50 was 9.33

###

Each entry below lists one item and its recorded IC50 value.
- systemTested: Hpk1 (Homo sapiens)
- methodDescription: SLP76 phosphorylation assay (SLP76 pS376 in lysates of HEK293 cells engineered to express Hpk1 and SLP76)
- Format: cell-based
- measurementConditions: HEK293 cells expressing Hpk1 and SLP76, 4 hours incubation; read-out: pSLP76 (HEK293) (pIC50) (converted)

Worked cases, answers included:
• Nc1ncc(-c2ccc(C3CCOCC3)c([C@H]3CCCN3)c2)cc1-c1ccncc1 [Co. 25b] = > 10 µM
• Nc1ncc(-c2ccc(C3CCOCC3)c([C@H]3C[S@@+]([O-])CCN3)c2)cc1-c1ccnc(F)c1 (single isomer, unassigned) [Compound 15a] = > 10 µM

Consider Nc1ncc(-c2ccc(C3CCOCC3)c(C3CCCN3)c2)cc1-c1cc[n+]([O-])cc1 (stereo not drawn) . Its measured IC50 is > 10 µM

###

- systemTested: Hpk1 (Homo sapiens)
- methodDescription: SLP76 phosphorylation assay (SLP76 pS376 in lysates of HEK293 cells engineered to express Hpk1 and SLP76)
- Assay type: cell-based
- measurementConditions: HEK293 cells expressing Hpk1 and SLP76, 4 hours incubation; read-out: pSLP76 (HEK293) (pIC50) (converted)
measurementLabel: IC50

Below are worked cases with known answers.
• Nc1ncc(-c2ccc(C3CCOCC3)c([C@H]3CSCCN3)c2)cc1-c1ccnc(F)c1 (single isomer, unassigned) [Co. 103b] = > 10 µM
• CN(C)Cc1cc(-c2cnc(N)c(C(=O)NCCO)c2)ccc1C1CCOCC1 = 4.68 µM
• Nc1ncc(-c2ccc(C3CCOCC3)c([C@@H]3CCCN3)c2)cc1-c1ccnc(F)c1Cl = 0.676 µM
• Nc1ncc(-c2ccc(C3CCC(F)(F)CC3)c([C@@H]3CCCN3)c2)cc1-c1ccnc(F)c1 = 2.45 µM
• Nc1ncc(-c2ccc(C3CCOCC3)c([C@@H]3CCCN3)c2)cc1-c1ccc(=O)[nH]c1 = > 10 µM

Next, consider the following molecule.
Reported IC50 ( Nc1ncc(-c2ccc(C3CCOCC3)c([C@@H]3CCCN3)c2)cc1-c1cc[nH]c(=O)c1 ) = > 10 µM

###

- systemTested: Hpk1 (Homo sapiens, UniProt Q92918)
- Sequence (Q92918 whole entry, the tested form may be a part): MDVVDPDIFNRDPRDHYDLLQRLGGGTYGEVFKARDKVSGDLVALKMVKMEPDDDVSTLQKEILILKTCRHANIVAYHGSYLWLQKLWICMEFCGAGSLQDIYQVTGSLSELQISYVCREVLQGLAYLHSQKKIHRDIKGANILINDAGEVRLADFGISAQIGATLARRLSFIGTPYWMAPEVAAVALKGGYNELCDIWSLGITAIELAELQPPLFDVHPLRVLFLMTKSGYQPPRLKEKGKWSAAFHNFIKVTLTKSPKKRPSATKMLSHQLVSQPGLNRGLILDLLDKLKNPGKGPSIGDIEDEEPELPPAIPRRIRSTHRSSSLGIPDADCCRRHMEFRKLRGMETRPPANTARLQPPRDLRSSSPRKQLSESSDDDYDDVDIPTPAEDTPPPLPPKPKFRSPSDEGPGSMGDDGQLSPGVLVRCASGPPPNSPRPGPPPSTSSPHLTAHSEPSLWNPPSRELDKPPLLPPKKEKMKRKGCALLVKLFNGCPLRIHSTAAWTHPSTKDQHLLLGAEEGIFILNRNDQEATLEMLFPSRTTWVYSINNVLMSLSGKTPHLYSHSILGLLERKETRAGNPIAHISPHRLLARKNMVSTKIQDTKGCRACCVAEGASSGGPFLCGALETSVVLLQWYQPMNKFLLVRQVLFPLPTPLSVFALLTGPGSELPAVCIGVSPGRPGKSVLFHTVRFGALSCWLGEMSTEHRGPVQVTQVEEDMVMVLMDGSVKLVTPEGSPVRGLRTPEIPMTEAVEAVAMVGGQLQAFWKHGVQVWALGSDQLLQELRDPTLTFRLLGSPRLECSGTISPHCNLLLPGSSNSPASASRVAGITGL
- methodDescription: SLP76 phosphorylation assay (SLP76 pS376 in lysates of HEK293 cells engineered to express Hpk1 and SLP76)
- Assay type: cell-based
- measurementConditions: HEK293 cells expressing Hpk1 and SLP76, 4 hours incubation; read-out: pSLP76 (HEK293) (pIC50) (converted)
Measured IC50, listed per entry.

Reference set (10 entries):
* N#Cc1ccc(-c2cnc(N)c(-c3ccnc(F)c3)c2)cc1[C@@H]1CCCN1 | > 10000 nM
* Nc1ncc(-c2ccc(C3CCOCC3)c([C@@H]3C[S@+]([O-])CCN3)c2)cc1-c1ccnc(F)c1 (single isomer, unassigned) [Co. 15b] | > 10000 nM
* Nc1ncc(-c2ccc(C3CCOCC3)c([C@H]3CC(F)(F)CN3)c2)cc1-c1ccnc(F)c1 (single isomer, unassigned) | > 10000 nM
* CS(=O)(=O)N1CCC(c2ccc(-c3cnc(N)c(-c4ccnc(F)c4)c3)cc2[C@@H]2CCCN2)CC1 | 724 nM
* Nc1ncc(-c2ccc(C3CCOCC3)c([C@@H]3COCCCN3)c2)cc1-c1ccncc1 (single isomer, unassigned) [Co. 93a] | 4570 nM
* Nc1ncc(-c2ccc(C3=CCS(=O)(=O)CC3)c([C@@H]3CCCN3)c2)cc1-c1ccnc(F)c1 | 2510 nM
* C[C@H]1CN[C@H](c2cc(-c3cnc(N)c(Br)c3)ccc2C2CCOCC2)CO1 | 794 nM
* Nc1ncc(-c2ccc(C3CCOCC3)c([C@@H]3COCCN3)c2)cc1-c1ccnc(F)c1 | 126 nM
* Nc1ncc(-c2ccc(C3CCOCC3)c([C@@H]3CCCN3)c2)cc1-c1ccnnc1 | 2290 nM
* Nc1ncc(-c2ccc(C3CCOCC3)c([C@@H]3CCCN3)c2)cc1-c1ccnc(F)c1F | 240 nM

Data point: CN(Cc1cc(-c2cnc(N)c(-c3ccncc3)c2)ccc1C1CCOCC1)C1CC1 ; IC50 = 7410 nM

Reported IC50 for CS(=O)(=O)N1CC=C(c2ccc(-c3cnc(N)c(-c4ccnc(F)c4)c3)cc2[C@@H]2CCCN2)CC1 was 1020 nM

So, Nc1ncc(-c2ccc(C3CCOCC3)c([C@@H]3CCCN3)c2)nc1-c1ccncc1 ? Its IC50 was 2000 nM

Entry Nc1ncc(-c2ccc(C3CCS(=O)(=O)CC3)c([C@@H]3CCCN3)c2)cc1-c1ccnc(F)c1 — recorded IC50 = 1860 nM

###

IC50 listing for selected compounds.
- systemTested: full-length human Hpk1 (Homo sapiens)
- Construct: A recombinant fusion protein consisting of full-length human Hpk1; GST (N)
- methodDescription: HPK1 kinase assay (ADP Glo Kinase Assay)
- Type: biochemical
- measurementConditions: full-length human GST-Hpk1, ADP Glo, 75 μM ATP; read-out: Hpk1 biochemical (pIC50) (converted)
Please respond with the number in nM and leave the unit unwritten.

* Nc1ncc(-c2ccc(C3CCOCC3)c([C@H]3CC4(CC4)CN3)c2)cc1-c1ccncc1 (single isomer, unassigned) | 135
* Nc1ncc(-c2ccc(C3CCOCC3)c([C@@H]3CCCN3)c2)cc1-c1cc[nH]c(=O)c1 | 26.3

Value of IC50 reported for the compound CN(C)Cc1cc(-c2cnc(N)c(-c3ccncc3F)c2)ccc1C1CCOCC1 is 40.7

Lab note: Nc1ncc(-c2ccc(C3CCOCC3)c([C@H]3CC(F)(F)CN3)c2)cc1-c1ccnc(F)c1 (single isomer, unassigned) gave IC50 of 8710

###

Documented IC50 across a set of compounds
- systemTested: full-length human Hpk1 (Homo sapiens, UniProt Q92918)
- Construct: A recombinant fusion protein consisting of full-length human Hpk1; GST (N)
- Sequence (Q92918 whole entry, the tested form may be a part): as above
- methodDescription: HPK1 kinase assay (ADP Glo Kinase Assay)
- Format: biochemical
- measurementConditions: full-length human GST-Hpk1, ADP Glo, 75 μM ATP; read-out: Hpk1 biochemical (pIC50) (converted)
Write the answer as a number in nM, unit excluded.

- Nc1ncc(-c2ccc([C@H]3CCOC3)c([C@@H]3CCCN3)c2)cc1-c1ccnc(F)c1 (single isomer, unassigned): 3.72
- C[C@@H]1CCN[C@@H]1c1cc(-c2cnc(N)c(-c3ccncc3)c2)ccc1C1CCOCC1 (racemic): 6.61

Please examine the following record next.
Per the records, this compound ( Nc1ncc(-c2ccc(N3CCOCC3)c(C3CCCN3)n2)cc1-c1ccncc1 (stereo not drawn) ) has IC50 equal to 35.5

###

Parameter: IC50. Scope: all listed entries.
- systemTested: full-length human Hpk1 (Homo sapiens, UniProt Q92918)
- Construct: A recombinant fusion protein consisting of full-length human Hpk1; GST (N)
- methodDescription: HPK1 kinase assay (ADP Glo Kinase Assay)
- Type: biochemical
- measurementConditions: full-length human GST-Hpk1, ADP Glo, 75 μM ATP; read-out: Hpk1 biochemical (pIC50) (converted)
Supply the numeric figure in nM, leaving out any unit text.

Recorded results for 3 compounds are shown here.
- Cn1cc(-c2cc(-c3ccc(C4CCOCC4)c([C@@H]4COCCN4)c3)cnc2N)cn1: 15.5
- CS(=O)(=O)N1CCC(c2ccc(-c3cnc(N)c(-c4ccnc(F)c4)c3)cc2[C@@H]2CCCN2)CC1: 26.3
- C[C@H]1COC[C@@H](c2cc(-c3cnc(N)c(-c4ccncc4)c3)ccc2C2CCOCC2)N1 (single isomer, unassigned) [Co. 83a]: 44.7

Form: compound = C[C@H]1CN[C@H](c2cc(-c3cnc(N)c(-c4ccnc(F)c4)c3)ccc2C2CCOCC2)CO1 ; IC50 = 12.9

Looking up Nc1ncc(-c2ccc(C3CCOCC3)c([C@@H]3COCCN3)c2)cc1Br , I see its IC50 listed as 8.13
